Tested on: KRAS PDC multicell spheroid viability;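 note: drug exposure lasted seven days; 100% = DMSO vehicle wells and lower means fewer viable cells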
test protocol: Anticancer human tumor 521955-158-R6-J3-PDC patient-derived pancreatic carcinoma cell line growth inhibition [KRAS2]
condition notes: second compound 1 µM; first compound 0.0316 µM; hits give low values
Excerpt: Multicellular complex tumor spheroid response to RAS pathway inhibitors in combination with a targeted agents in patient-derived cell lines with oncogenic KRAS variants from multiple cancer types A high-throughput screen of multi-cell type tumor spheroids was designed to identify active combinations of targeted small molecules and KRAS pathway inhibitors. […] Compounds. […] If the clinical Cmax for an agent had not been determined, the highest concentration tested was 10 microM. […]
# strict inequality: viability, T/C < 80% yields 1, everything else yields -1

{"columns": ["molecule", "answer label"],
 "data": [
  ["CC(=O)Nc1cccc(-n2c(=O)n(C3CC3)c(=O)c3c(Nc4ccc(I)cc4F)n(C)c(=O)c(C)c32)c1 + C=CC(=O)N1CCN(c2nc(OCC3CCCN3C)nc3c2CCN(c2cccc4cccc(C)c24)C3)CC1CC#N", 1],
  ["CC(=O)Nc1cccc(-n2c(=O)n(C3CC3)c(=O)c3c(Nc4ccc(I)cc4F)n(C)c(=O)c(C)c32)c1 + COc1cc2nc(C)nc(NC(C)c3cc(N)cc(C(F)(F)F)c3)c2cc1OC1CCOC1", 1],
  ["CC(=O)Nc1cccc(-n2c(=O)n(C3CC3)c(=O)c3c(Nc4ccc(I)cc4F)n(C)c(=O)c(C)c32)c1 + CC1OCC2(CCN(c3cnc(Sc4ccnc(N)c4Cl)c(N)n3)CC2)C1N", 1]
]}

In: In plain terms, does CC(C)n1nc(-c2ccc3oc(N)nc3c2)c2c(N)ncnc21 + CC1OCC2(CCN(c3cnc(Sc4ccnc(N)c4Cl)c(N)n3)CC2)C1N come in under 80% for viability, T/C?
Out: 1

Data origin, for the record: PubChem BioAssay AID1963864
